Hello, the source for this data is patent US20230139171A1, in case you need it.

- study-target: human TLR7 (Homo sapiens)
- Construct: host or cells: HEK-Blue cells
- test-name: TLR7 inhibition reporter assay (HEK-Blue cells, SEAP reporter, gardiquimod stimulation)
- Type: cell-based
- condition-parameters: HEK-Blue cells overexpressing human TLR7, SEAP reporter, gardiquimod 7.5 μM; read-out: TLR7 IC50
pIC50: −log10 of the molar value.
readout-type: pIC50

1. COc1cc(-c2[nH]c3sc(C4CCC(NC5CCN(C(C)C)CC5)CC4)nc3c2C(C)C)cn2ncnc12 (single isomer, unassigned) [Example 166]
2. CNC(=O)CNC1CCC(c2nc3c(C(C)C)c(-c4cn5ncnc5c(C)c4C)[nH]c3s2)CC1 (single isomer, unassigned) [Example 209]
From the recorded data, which exceeds the other in pIC50: 1 or 2 ? The response must carry the label of the picked entry.
2
(2: 9.49, 1: 9.06)

====

- study-target: human TLR7 (Homo sapiens, UniProt Q9NYK1)
- Construct: host or cells: HEK-Blue cells
- Sequence (Q9NYK1 27-1049): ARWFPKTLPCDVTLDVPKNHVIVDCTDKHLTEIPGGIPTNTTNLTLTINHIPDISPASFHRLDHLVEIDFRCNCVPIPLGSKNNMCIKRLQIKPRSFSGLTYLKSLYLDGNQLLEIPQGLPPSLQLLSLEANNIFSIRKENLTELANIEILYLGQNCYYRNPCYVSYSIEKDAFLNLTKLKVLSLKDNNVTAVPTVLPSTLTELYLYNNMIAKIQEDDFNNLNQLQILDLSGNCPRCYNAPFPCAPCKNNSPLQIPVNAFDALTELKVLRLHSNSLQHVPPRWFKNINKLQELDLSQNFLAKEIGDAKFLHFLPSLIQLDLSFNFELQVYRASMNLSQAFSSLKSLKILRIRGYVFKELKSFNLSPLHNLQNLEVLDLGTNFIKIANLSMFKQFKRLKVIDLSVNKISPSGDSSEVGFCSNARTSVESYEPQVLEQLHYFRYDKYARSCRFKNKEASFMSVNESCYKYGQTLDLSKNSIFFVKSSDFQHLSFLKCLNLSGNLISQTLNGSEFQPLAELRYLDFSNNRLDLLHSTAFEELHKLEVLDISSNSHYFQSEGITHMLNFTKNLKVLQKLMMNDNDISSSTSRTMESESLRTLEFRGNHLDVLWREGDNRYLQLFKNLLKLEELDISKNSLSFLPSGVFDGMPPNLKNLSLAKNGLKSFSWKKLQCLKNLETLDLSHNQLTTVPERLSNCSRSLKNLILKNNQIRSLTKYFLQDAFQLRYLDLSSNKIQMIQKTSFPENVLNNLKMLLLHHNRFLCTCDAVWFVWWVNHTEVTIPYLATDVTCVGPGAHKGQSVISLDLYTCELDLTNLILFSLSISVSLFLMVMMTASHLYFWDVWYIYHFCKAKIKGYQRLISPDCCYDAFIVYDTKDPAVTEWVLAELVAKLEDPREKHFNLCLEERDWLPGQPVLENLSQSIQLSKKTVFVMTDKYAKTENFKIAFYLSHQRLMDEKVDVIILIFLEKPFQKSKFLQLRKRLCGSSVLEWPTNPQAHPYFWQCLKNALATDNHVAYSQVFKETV
- test-name: TLR7 inhibition reporter assay (HEK-Blue cells, SEAP reporter, gardiquimod stimulation)
- Assay type: cell-based
- condition-parameters: HEK-Blue cells overexpressing human TLR7, SEAP reporter, gardiquimod 7.5 μM; read-out: TLR7 IC50
readout-type: IC50 (nM)

>>> measurement("Cc1c(-c2[nH]c3sc(N4CCN(CC(C)(C)O)C[C@H]4C)nc3c2C(C)C)cn2ncnc2c1C [Example 325]")
19
>>> measurement("COc1cc(-c2[nH]c3sc(C4CCC(N(C)C5COC5)CC4)nc3c2C(C)C)cn2ncnc12 (single isomer, unassigned) [Example 125]")
5.8
>>> measurement("Cc1c(-c2[nH]c3sc(CN4CC5(CCOCC5)C4)nc3c2C(C)C)cn2ncnc2c1C [Example 404]")
43.6
>>> measurement("COC(C)(C)CNC1CCN(c2nc3c(C(C)C)c(-c4cn5ncnc5c(C)c4C)[nH]c3s2)CC1 [Example 294]")
7.97

1. Cc1c(-c2[nH]c3sc(N4C[C@@H](C)N(C(C)C)C[C@@H]4C)nc3c2C(C)C)cn2ncnc2c1C [Example 330]
2. COc1cc(-c2[nH]c3sc(C4CCC(N5CC6(COC6)C5)CC4)nc3c2C(C)C)cn2ncnc12 (single isomer, unassigned) [Example 69]
3. Cc1cc(-c2[nH]c3sc(C(=O)N4CCCC4)nc3c2C(C)C)cn2ncnc12 [Example 393]
4. Cc1c(-c2[nH]c3sc(C4CCC(NC5CCOCC5)CC4)nc3c2C(C)C)cn2ncnc2c1C (single isomer, unassigned) [Example 200]
Order each entry by recorded IC50, climbing from the minimum. The reply should contain the labels ordered as requested.
4, 2, 1, 3

I. COc1cc(-c2[nH]c3sc(C4CCC(N5CCNC(=O)C5)CC4)nc3c2C(C)C)cn2ncnc12 (single isomer, unassigned) [Example 121]
II. Cc1cc(-c2[nH]c3sc(C4CCNCC4)nc3c2C(C)C)cc(C)n1 [Example 4]
III. Cc1c(-c2[nH]c3sc(C4CCC(NC5COC5)CC4)nc3c2C(C)C)cn2ncnc2c1C (single isomer, unassigned) [Example 184]
IV. Cc1c(-c2[nH]c3sc(N4CCC(NC5COC5)CC4)nc3c2C(C)C)cn2ncnc2c1C [Example 296]
V. Cc1cc2ncnn2cc1-c1[nH]c2sc(C3CCC(NC4(C)COC4)CC3)nc2c1C(C)C (single isomer, unassigned) [Example 145]
Arrange the 5 compounds from largest to smallest IC50. The reply should contain the labels ordered as requested.
V, I, II, IV, III

1. CC(C)c1c(-c2ccc(C#N)c3ncccc23)[nH]c2sc(C3CCN(C4COC4)CC3)nc12 [Example 37]
2. COc1cc(-c2[nH]c3sc(C4CCN(CCS(C)(=O)=O)CC4)nc3c2C(C)C)cn2ncnc12 [Example 16]
From the recorded data, which exceeds the other in IC50: 1 or 2 ? The response must carry the label of the picked entry.
1
